# system_tested: complete enzyme of PDE4D2 (aa. 1-507) (Homo sapiens)
# Sequence (Q08499 303-809): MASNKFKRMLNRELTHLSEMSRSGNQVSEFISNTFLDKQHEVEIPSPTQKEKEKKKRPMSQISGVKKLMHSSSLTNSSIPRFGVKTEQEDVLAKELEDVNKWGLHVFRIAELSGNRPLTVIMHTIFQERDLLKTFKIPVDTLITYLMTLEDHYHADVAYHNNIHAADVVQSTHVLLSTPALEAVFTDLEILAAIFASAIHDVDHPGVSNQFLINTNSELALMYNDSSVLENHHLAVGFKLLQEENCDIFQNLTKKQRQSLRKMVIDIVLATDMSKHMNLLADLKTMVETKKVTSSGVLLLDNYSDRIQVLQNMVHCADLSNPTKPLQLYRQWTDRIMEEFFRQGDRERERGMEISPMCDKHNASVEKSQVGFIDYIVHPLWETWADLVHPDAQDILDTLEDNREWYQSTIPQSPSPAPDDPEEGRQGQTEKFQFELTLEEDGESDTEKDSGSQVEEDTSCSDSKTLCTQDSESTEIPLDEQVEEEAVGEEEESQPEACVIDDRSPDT
pIC50: −log10 of the molar value.
Mark Satisfied for reported pIC50 of 5 or greater; mark Not satisfied for anything smaller.

-- ask Does the reported pIC50 for CSc1nc2c(C)cccc2c(=O)n1-c1c(F)cccc1F [TC3.23] fall at or above the 5 mark?
-- reply Satisfied

-- ask Does the reported pIC50 for CSc1nc2ccc(Br)cc2c(=O)n1-c1c(F)cccc1F [TC3.36] fall at or above the 5 mark?
-- reply Satisfied

-- ask Does the reported pIC50 for CSc1nc2c(C)cccc2c(=O)n1-c1ccccc1Br [TC3.22] fall at or above the 5 mark?
-- reply Satisfied

-- ask Does the reported pIC50 for Cc1cccc2c(=O)n(-c3ccccc3Br)c(=S)[nH]c12 [TC3.14] fall at or above the 5 mark?
-- reply Not satisfied

-- ask Does the reported pIC50 for S=c1[nH]c2ccccc2c(=S)n1-c1ccccc1 [TC3.6] fall at or above the 5 mark?
-- reply Satisfied

###

pIC50: −log10 of the molar value.
What pIC50 was measured for each of the following?

-- ask Field: pIC50 (catalytic domain of PDE7A1 (aa. 130-482) (Homo sapiens, UniProt Q13946)). Entry: O=c1c2cc(Br)ccc2[nH]c(=S)n1-c1ccccc1 [TC2.30A]
-- reply < 5.00

-- ask Field: pIC50 (catalytic domain of PDE7A1 (aa. 130-482) (Homo sapiens, UniProt Q13946)). Entry: `S=c1[nH]c2ccccc2c(=S)n1-c1ccccc1`
-- reply 5.98

-- ask Field: pIC50 (catalytic domain of PDE7A1 (aa. 130-482) (Homo sapiens, UniProt Q13946)). Entry: `CSc1nc2c(C)cccc2c(=O)n1-c1ccccc1Br`
-- reply 6.57

-- ask Field: pIC50 (catalytic domain of PDE7A1 (aa. 130-482) (Homo sapiens, UniProt Q13946)). Entry: `CSc1nc2ccccc2c(=S)n1-c1ccccc1Br`
-- reply 6.00 to 7.00

-- ask Field: pIC50 (catalytic domain of PDE7A1 (aa. 130-482) (Homo sapiens, UniProt Q13946)). Entry: `CSc1nc2ccccc2c(=S)n1-c1c(F)cccc1F`
-- reply 6.00 to 7.00

-- ask Field: pIC50 (catalytic domain of PDE7A1 (aa. 130-482) (Homo sapiens, UniProt Q13946)). Entry: `CSc1nc2c(C)cccc2c(=O)n1-c1c(F)cccc1F`
-- reply 6.89

-- ask Field: pIC50 (catalytic domain of PDE7A1 (aa. 130-482) (Homo sapiens, UniProt Q13946)). Entry: `Cc1cccc2c(=O)n(-c3ccc(F)c(F)c3F)c(=S)[nH]c12`
-- reply < 5.00

-- ask Field: pIC50 (catalytic domain of PDE7A1 (aa. 130-482) (Homo sapiens, UniProt Q13946)). Entry: `Fc1cccc(F)c1-n1c(=S)[nH]c2ccccc2c1=S`
-- reply ~6.00

-- ask Field: pIC50 (catalytic domain of PDE7A1 (aa. 130-482) (Homo sapiens, UniProt Q13946)). Entry: CSc1nc2ccc(Br)cc2c(=O)n1-c1ccccc1 [TC3.47A]
-- reply < 6.00

-- ask Field: pIC50 (catalytic domain of PDE7A1 (aa. 130-482) (Homo sapiens, UniProt Q13946)). Entry: `CSc1nc2ccccc2c(=S)n1-c1ccccc1`
-- reply 6.08

-- ask Field: pIC50 (catalytic domain of PDE7A1 (aa. 130-482) (Homo sapiens, UniProt Q13946)). Entry: `O=c1c2cc(Br)ccc2[nH]c(=S)n1-c1ccccc1Br`
-- reply ~5.00

-- ask Field: pIC50 (catalytic domain of PDE7A1 (aa. 130-482) (Homo sapiens, UniProt Q13946)). Entry: `Cc1cccc2c(=O)n(-c3ccccc3Br)c(=S)[nH]c12`
-- reply 5.77

-- ask Field: pIC50 (catalytic domain of PDE7A1 (aa. 130-482) (Homo sapiens, UniProt Q13946)). Entry: `Fc1ccc(-n2c(=S)[nH]c3ccccc3c2=S)c(F)c1F`
-- reply < 6.00

-- ask Field: pIC50 (catalytic domain of PDE7A1 (aa. 130-482) (Homo sapiens, UniProt Q13946)). Entry: `CSc1nc2c(C)cccc2c(=O)n1-c1ccc(F)c(F)c1F`
-- reply < 6.00

-- ask Field: pIC50 (catalytic domain of PDE7A1 (aa. 130-482) (Homo sapiens, UniProt Q13946)). Entry: `CSc1nc2ccc(Br)cc2c(=O)n1-c1c(F)cccc1F`
-- reply 6.62

-- ask Field: pIC50 (catalytic domain of PDE7A1 (aa. 130-482) (Homo sapiens, UniProt Q13946)). Entry: `O=c1c2cc(Br)ccc2[nH]c(=S)n1-c1c(F)cccc1F`
-- reply < 5.00

-- ask Field: pIC50 (catalytic domain of PDE7A1 (aa. 130-482) (Homo sapiens, UniProt Q13946)). Entry: `CSc1nc2ccc(Br)cc2c(=O)n1-c1ccccc1Br`
-- reply 5.73

-- ask Field: pIC50 (catalytic domain of PDE7A1 (aa. 130-482) (Homo sapiens, UniProt Q13946)). Entry: CSc1nc2c(C)cccc2c(=O)n1-c1ccccc1 [TC3.15b]
-- reply ~6.00

-- ask Field: pIC50 (catalytic domain of PDE7A1 (aa. 130-482) (Homo sapiens, UniProt Q13946)). Entry: `O=c1c2cc(Br)ccc2[nH]c(=S)n1-c1ccc(F)c(F)c1F`
-- reply < 5.00

-- ask Field: pIC50 (catalytic domain of PDE7A1 (aa. 130-482) (Homo sapiens, UniProt Q13946)). Entry: `Cc1cccc2c(=O)n(-c3c(F)cccc3F)c(=S)[nH]c12`
-- reply < 6.00

-- ask Field: pIC50 (catalytic domain of PDE7A1 (aa. 130-482) (Homo sapiens, UniProt Q13946)). Entry: `CSc1nc2ccc(Br)cc2c(=O)n1-c1ccc(F)c(F)c1F`
-- reply 5.68
